tested on: Trichoderma hamatum; assay: Antifungal activity against Trichoderma hamatum assessed as radial growth at 0.5% after 72 hrs by poison food technique of Flack relative to control; type: functional
ENDPOINT: inhibition (INH) (%)
Answers are plain numbers, in %.

Some entries whose results are on file:
Entry under test: CCOC(=O)C1=C(C)NC(=O)NC1c1ccc(N(C)C)cc1 (stereo unspecified) . Its inhibition (INH) was 0

For CCOC(=O)C1=C(C)NC(=O)NC1c1ccccc1 (stereo unspecified) the compound record lists inhibition (INH) as 2.46

Record summary for CCOC(=O)C1=C(C)NC(=S)NC1c1ccccc1O (stereo unspecified) : reported inhibition (INH) = 0

Could you report inhibition (INH) for every entry in the following list?
1. CCOC(=O)C1=C(C)NC(=S)NC1c1ccc(N(C)C)cc1 (stereo unspecified)
2. CCOC(=O)C1=C(C)NC(=O)NC1c1ccccc1O (stereo unspecified)
3. CCOC(=O)C1=C(C)NC(=S)NC1c1ccccc1 (stereo unspecified)

RESULT:
8.39
0
0

* * *

tested on: Aspergillus niger; assay: Antifungal activity against Aspergillus niger assessed as radial growth at 1% after 48 hrs by poison food technique of Flack relative to control; assay type: functional
ENDPOINT: inhibition (INH) (%)
Give bare numbers, in %.

Take a look at these entries with their results.
The recorded inhibition (INH) for CCOC(=O)C1=C(C)NC(=S)NC1c1ccccc1O (stereo unspecified) is 0

Data point: CCOC(=O)C1=C(C)NC(=S)NC1c1ccccc1 (stereo unspecified) ; inhibition (INH) = 0

Record CCOC(=O)C1=C(C)NC(=O)NC1c1ccccc1O (stereo unspecified) . Reported inhibition (INH): 17.75

Note to self: inhibition (INH) recorded for CCOC(=O)C1=C(C)NC(=O)NC1c1ccccc1 (stereo unspecified) was 0

Just so you know, measured inhibition (INH) for CCOC(=O)C1=C(C)NC(=O)NC1c1ccc(N(C)C)cc1 (stereo unspecified) came out at 47.25

Next:
Form: compound = CCOC(=O)C1=C(C)NC(=S)NC1c1ccc(N(C)C)cc1 (stereo unspecified) ; inhibition (INH) = 0

* * *

Provide the recorded inhibition (INH) for the entries that follow.
tested on: Trichoderma hamatum; experiment: Antifungal activity against Trichoderma hamatum assessed as radial growth at 5% after 24 hrs by poison food technique of Flack relative to control; format: functional
One number for each entry, in %.

# example entries with known answers
The molecule CCOC(=O)C1=C(C)NC(=O)NC1c1ccccc1O (stereo unspecified) showed inhibition (INH) equal to 89.47

Measured inhibition (INH), CCOC(=O)C1=C(C)NC(=O)NC1c1ccc(N(C)C)cc1 (stereo unspecified) : 84.2

inhibition (INH) reported for this molecule CCOC(=O)C1=C(C)NC(=S)NC1c1ccccc1O (stereo unspecified) : 100

Reported inhibition (INH) for CCOC(=O)C1=C(C)NC(=S)NC1c1ccc(N(C)C)cc1 (stereo unspecified) was 100

The recorded inhibition (INH) for entry CCOC(=O)C1=C(C)NC(=S)NC1c1ccccc1 (stereo unspecified) equals 89.18

// next item, inhibition (INH) requested
response.value for CCOC(=O)C1=C(C)NC(=O)NC1c1ccccc1 (stereo unspecified) (field: inhibition (INH)) = 100

* * *

tested on: Trichoderma hamatum; assay: Antifungal activity against Trichoderma hamatum assessed as radial growth at 5% after 72 hrs by poison food technique of Flack relative to control; type: functional
Parameter threshold = 90%. Response is Fulfilled when inhibition (INH) meets or exceeds it, else Not fulfilled.

Worked cases, answers included:
QUERY: Tell me whether inhibition (INH) is at least 90% here: CCOC(=O)C1=C(C)NC(=O)NC1c1ccccc1O (stereo unspecified)
RESULT: Fulfilled

QUERY: Form field: inhibition (INH) at least 90%? Entry: CCOC(=O)C1=C(C)NC(=S)NC1c1ccccc1 (stereo unspecified)
RESULT: Fulfilled

QUERY: Given the entry CCOC(=O)C1=C(C)NC(=S)NC1c1ccccc1O (stereo unspecified) , answer whether its inhibition (INH) meets or surpasses 90%.
RESULT: Fulfilled

QUERY: Is it the case that CCOC(=O)C1=C(C)NC(=S)NC1c1ccc(N(C)C)cc1 (stereo unspecified) has inhibition (INH) reaching or exceeding 90%?
RESULT: Fulfilled

Continuing:
QUERY: # check: inhibition (INH) of CCOC(=O)C1=C(C)NC(=O)NC1c1ccc(N(C)C)cc1 (stereo unspecified) is greater than or equal to 90%
RESULT: Not fulfilled

QUERY: # check: inhibition (INH) of CCOC(=O)C1=C(C)NC(=O)NC1c1ccccc1 (stereo unspecified) is greater than or equal to 90%
RESULT: Fulfilled

# credit: ChEMBL document CHEMBL1152173
